// data source = ChEMBL document CHEMBL3988442

# Tested on: Trypanosoma cruzi
# testMethodNotes: Trypanosoma cruzi phosphomannomutase and mannose-1-phosphate guanylyltransferase assay
# Assay type: functional
# Parameters: scale not given: direction of the effect not stated beside the values
# runConditions: 10 µM
reportedMetric: Percent Effect (%)
Respond numerically; units are % and should not be typed.

Reference set (5 entries):
Item under review: Cc1noc(C2CCN(C(=O)CCNc3ncccn3)CC2)n1 . Reported Percent Effect?
5.92

Record: O=C(O)c1nnn(Cc2cccc(C(F)(F)F)c2)c1-c1cccnc1
-4.13

Record: CN(Cc1cncnc1)Cc1cn2c(n1)CN(C1CCOC1)CC2 (stereo unspecified)
-2.51

Record: CN(Cc1ccco1)C[C@H]1OC[C@@H]2CCN(Cc3cccnc3)C[C@@H]21
0.772

Record: CC(O)CN1CCC(CNCc2ccccc2OC(F)(F)F)CC1 (stereo unspecified)
7.98

# next compound below
Item under review: Cc1cccc(C2(CNC(=O)CCN3C(=O)CCC3=O)CCCC2)c1 . Reported Percent Effect?
5.95

====

# targetUnderTest: Proteasome subunit beta (Trypanosoma cruzi) (UniProt O96673)
# Sequence (whole entry): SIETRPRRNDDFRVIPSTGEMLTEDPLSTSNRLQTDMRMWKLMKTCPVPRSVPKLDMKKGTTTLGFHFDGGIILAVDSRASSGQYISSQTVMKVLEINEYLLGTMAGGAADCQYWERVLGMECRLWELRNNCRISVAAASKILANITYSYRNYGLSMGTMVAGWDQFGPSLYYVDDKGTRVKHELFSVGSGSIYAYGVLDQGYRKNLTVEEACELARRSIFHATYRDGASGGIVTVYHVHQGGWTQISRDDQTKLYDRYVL
# testMethodNotes: Trypanosoma cruzi proteasome chymotrypsin-like activity (TcProtChymo) assay. Further: in the data most compounds retested in dose-response had high values.
# Assay type: functional
# Parameters: scale not given: direction of the effect not stated beside the values
# runConditions: 9.37 µM
reportedMetric: Percent Effect (%)
Respond numerically; units are % and should not be typed.

Item under review: Cc1ccc(-c2cn[nH]c2C2CCCN(c3nccc(N)n3)C2)cc1 (stereo unspecified) . Reported Percent Effect?
25.6

Record: Cc1nnc(NCc2ccccc2Cl)c(C#N)c1C
5.39

Record: COC[C@@]12CC[C@@H](N3CCOCC3)C[C@H]1CCN(c1ncccn1)C2
14.7

Record: COC[C@@]12CC[C@@H](N3CCOCC3)C[C@H]1CCN(c1ncccc1Cl)C2
7.02

Record: CC(C)CN1C(=O)C2(CCN(Cc3nccs3)C2)c2ccccc21 (stereo unspecified)
16.1

More entries:
Item under review: O=C1CC2(CCCCN2C(=O)c2ccsc2)CN1CC1CC1 (stereo unspecified) . Reported Percent Effect?
0.429

Record: COc1ncccc1CNc1cc(N2CCCC2CO)ncn1 (stereo unspecified)
13.3

Record: Cn1ccnc1N1CCN(C(=O)Cc2ccc(F)cc2)CC1
17.6

Record: O=C(COc1ccc2c(c1)CCC2)NS(=O)(=O)c1cncc(Br)c1
3.33

Record: CC(C)CN1CCc2[nH]cnc2C12CCN(C(=O)c1cccnc1)CC2
14.3

Record: Cn1ccnc1CN1CCN(Cc2noc(-c3ccccc3)n2)CC1
7.55

Record: CCC(C)NC(=O)c1ccccc1-n1cnnn1 (stereo unspecified)
12.2

Record: CCc1nc2n(n1)CC(Nc1cc(C)nc3ncnn13)CC2 (stereo unspecified)
14.4

Record: CC(Cn1cccn1)NC(=O)NCc1ccc(S(N)(=O)=O)cc1 (stereo unspecified)
13.7

Record: COCCC(=O)N1C[C@H]2CN(Cc3cccc(C)n3)C(=O)[C@H]2C1
0.0858

Record: COc1ccc(C(C)N2CCN(Cc3nccn3C)CC2)cc1Cl (stereo unspecified)
11.3
